The measured values listed here are drawn from patent US20240351988A1.

biological target: Human Aryl Hydrocarbon Receptor (AhR) (Homo sapiens, UniProt P35869); experiment: AHR antagonist reporter assay in human cell line (INDIGO AhR Reporter Assay System, kynurenic acid activated); conditions: 200 μM kynurenic acid, 24 hours, luciferase; read-out: AhR Reporter Assay KA Antagonist Mode: IC50
Sequence (P35869 11-848): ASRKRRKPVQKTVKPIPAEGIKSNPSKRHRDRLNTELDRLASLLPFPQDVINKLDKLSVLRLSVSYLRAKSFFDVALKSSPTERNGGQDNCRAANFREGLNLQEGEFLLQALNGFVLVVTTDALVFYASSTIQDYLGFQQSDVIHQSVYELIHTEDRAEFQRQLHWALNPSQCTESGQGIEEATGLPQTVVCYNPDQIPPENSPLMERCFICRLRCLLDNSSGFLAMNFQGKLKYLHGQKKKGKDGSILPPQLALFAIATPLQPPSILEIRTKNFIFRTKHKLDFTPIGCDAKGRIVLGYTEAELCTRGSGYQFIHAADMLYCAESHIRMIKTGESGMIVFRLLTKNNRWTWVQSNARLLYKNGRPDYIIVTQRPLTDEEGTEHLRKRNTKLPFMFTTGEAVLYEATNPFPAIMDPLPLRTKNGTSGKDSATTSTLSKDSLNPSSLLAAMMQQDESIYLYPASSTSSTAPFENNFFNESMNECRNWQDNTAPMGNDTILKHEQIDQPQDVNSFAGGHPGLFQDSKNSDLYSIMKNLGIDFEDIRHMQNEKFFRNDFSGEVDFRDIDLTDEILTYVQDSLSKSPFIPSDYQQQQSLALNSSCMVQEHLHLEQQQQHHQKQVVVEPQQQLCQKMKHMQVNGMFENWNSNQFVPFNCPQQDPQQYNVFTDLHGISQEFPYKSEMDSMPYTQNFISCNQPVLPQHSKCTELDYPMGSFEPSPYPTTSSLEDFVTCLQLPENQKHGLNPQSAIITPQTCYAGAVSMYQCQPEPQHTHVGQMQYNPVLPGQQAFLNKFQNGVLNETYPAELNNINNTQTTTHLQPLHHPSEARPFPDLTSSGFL
pIC50: −log10 of the molar value.
parameterMeasured: pIC50

Provide measured pIC50 value, entry: `C[C@@H](CO)NC(=O)c1cc(-c2ccc(C(C)(C)C)cc2)nn(-c2cnn(C)c2)c1=O`
> 7.00

Provide measured pIC50 value, entry: `COC[C@H](C)NC(=O)c1cc(-c2cc(F)c3ncccc3c2F)nn(-c2cnn(C)c2)c1=O`
< 6.40

Provide measured pIC50 value, entry: `CC(=O)N1CC(NC(=O)c2cc(-c3ccc(Cl)cc3)nn(-c3cccc(F)c3)c2=O)C1`
< 6.40

Provide measured pIC50 value, entry: `CN(C)CCNC(=O)c1cc(-c2ccc(Cl)cc2)nn(-c2cnn(C)c2)c1=O`
< 6.40
